tested-target: human α1β2γ2 GABAA receptor (Homo sapiens, UniProt P14867+P18507)
Construct: expressed in transfected cells; host or cells: Xenopus laevis oocytes injected with capped cRNA
Sequence (P14867 28-456): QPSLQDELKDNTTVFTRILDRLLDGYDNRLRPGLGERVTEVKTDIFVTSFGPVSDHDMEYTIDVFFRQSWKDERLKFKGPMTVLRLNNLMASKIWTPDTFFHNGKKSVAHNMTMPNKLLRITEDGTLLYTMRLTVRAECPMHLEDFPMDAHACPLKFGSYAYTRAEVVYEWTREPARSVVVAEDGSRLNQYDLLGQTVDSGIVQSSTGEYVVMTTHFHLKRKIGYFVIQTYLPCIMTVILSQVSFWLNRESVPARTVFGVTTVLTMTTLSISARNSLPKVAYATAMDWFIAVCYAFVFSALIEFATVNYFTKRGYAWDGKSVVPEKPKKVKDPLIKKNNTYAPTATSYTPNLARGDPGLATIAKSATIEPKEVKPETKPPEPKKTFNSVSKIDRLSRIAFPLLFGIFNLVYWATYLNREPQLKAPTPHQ
Sequence (P47870 25-512 partner limits assumed): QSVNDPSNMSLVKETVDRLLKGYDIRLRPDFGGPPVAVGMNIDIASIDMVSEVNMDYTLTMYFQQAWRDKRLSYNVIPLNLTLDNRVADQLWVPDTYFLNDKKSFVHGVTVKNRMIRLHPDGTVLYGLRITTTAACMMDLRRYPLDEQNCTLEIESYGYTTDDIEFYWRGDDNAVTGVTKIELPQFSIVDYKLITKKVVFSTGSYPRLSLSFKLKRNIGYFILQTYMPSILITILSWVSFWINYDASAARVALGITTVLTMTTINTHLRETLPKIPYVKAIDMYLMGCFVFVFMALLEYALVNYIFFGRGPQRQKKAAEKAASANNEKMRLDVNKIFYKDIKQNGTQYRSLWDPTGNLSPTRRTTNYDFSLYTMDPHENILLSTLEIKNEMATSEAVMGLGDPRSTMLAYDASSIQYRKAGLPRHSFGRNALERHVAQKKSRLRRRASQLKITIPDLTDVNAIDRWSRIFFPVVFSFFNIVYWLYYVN
Sequence (P18507 40-475): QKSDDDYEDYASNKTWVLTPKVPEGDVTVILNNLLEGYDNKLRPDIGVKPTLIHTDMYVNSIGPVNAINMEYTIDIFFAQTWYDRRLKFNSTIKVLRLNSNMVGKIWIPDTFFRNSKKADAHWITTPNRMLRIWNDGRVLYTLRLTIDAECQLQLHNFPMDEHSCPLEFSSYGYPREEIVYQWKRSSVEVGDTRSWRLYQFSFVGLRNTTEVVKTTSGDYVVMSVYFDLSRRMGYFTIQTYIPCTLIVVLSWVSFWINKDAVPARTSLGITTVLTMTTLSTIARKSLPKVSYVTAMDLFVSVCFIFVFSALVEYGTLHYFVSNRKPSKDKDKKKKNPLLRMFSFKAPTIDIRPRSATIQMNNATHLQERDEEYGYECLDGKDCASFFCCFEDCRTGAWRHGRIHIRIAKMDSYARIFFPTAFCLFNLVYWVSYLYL
assay-remarks: Two-electrode voltage-clamp in Xenopus oocytes, potentiation of GABA EC10 current, GABAA1
Format: cell-based
assay-context: percentage potentiation of GABA EC10 current divided by that of diazepam control
Mark label 1 for reported Relative Potentiation for GABAA1 of 0.05 or greater; mark label 0 for anything smaller.

Known results for compounds:
> print(dat)
                               query.smiles  assigned.category
1  CCCNC(=O)c1nnc2c(-c3cc(C)ccc3C)c(Cl)ccc2c1N            label 1
2   CCCNC(=O)c1nnc2c(-c3ccc(C)nc3F)cccc2c1N            label 1
3       CCCNC(=O)c1nnc2c(-c3cnccn3)cccc2c1N            label 0
4  COc1ccc(F)cc1-c1cccc2c(N)c(C(=O)NC3CC3)nnc12            label 0

[Q] Evaluate CCCNC(=O)c1nnc2c(-c3cc(C)ccc3C)c(F)ccc2c1N : Relative Potentiation for GABAA1 at minimum 0.05?
[A] label 1

[Q] CCCNC(=O)c1nnc2c(-c3cc(Cl)ccc3Cl)c(F)ccc2c1N ?
[A] label 1

* * *

tested-target: human α1β2γ2 GABAA receptor (Homo sapiens, UniProt P14867+P18507)
Construct: expressed in transfected cells; host or cells: Xenopus laevis oocytes injected with capped cRNA
assay-remarks: Two-electrode voltage-clamp in Xenopus oocytes, potentiation of GABA EC10 current, GABAA1
Assay type: cell-based
assay-context: percentage potentiation of GABA EC10 current divided by that of diazepam control
Assign Relative Potentiation for GABAA1 to each entry below.
One number for each entry.

> print(dat)
                               query.smiles  numeric.value
1    CNC(=O)c1nnc2c(-c3cc(C)ccc3OC)cccc2c1N           0.19
2  CCCNC(=O)c1nnc2c(-c3cc(OC)c(OC)c(OC)c3)cccc2c1N            0.4

Your task in this section: give Relative Potentiation for GABAA1 for each listed record.
1. CCCNC(=O)c1nnc2c(-c3ccc(OC)nc3OC)cccc2c1N
2. CCCNC(=O)c1nnc2c(-c3cccc(OC)c3)cccc2c1N
3. CCCNC(=O)c1nnc2c(-c3ccc(OC)nc3)cccc2c1N
4. CCCNC(=O)c1nnc2c(-c3cnn(C)c3)cccc2c1N

[A]
0.17
0.13
−0.08
−0.16

Your task in this section: give Relative Potentiation for GABAA1 for each listed record.
1. CCCNC(=O)c1nnc2c(-c3cnc(OC)nc3OC)c(F)ccc2c1N
2. CCCNC(=O)c1nnc2c(-c3cc(C(F)(F)F)ccc3Cl)cccc2c1N
3. CCCNC(=O)c1nnc2c(-c3ccc(OC)cc3C(F)(F)F)c(F)ccc2c1N
4. CCCNC(=O)c1nnc2c(-c3cccnc3OC)cccc2c1N
5. CCCNC(=O)c1nnc2c(-c3ccc(C)cc3)cccc2c1N
6. CCCNC(=O)c1nnc2c(-c3cc(OC)ccc3Cl)c(F)ccc2c1N
7. CCCNC(=O)c1nnc2c(-c3ccc(OC)c(F)c3)c(F)ccc2c1N
8. CCNC(=O)c1nnc2c(-c3cnc(OC)nc3OC)cccc2c1N

[A]
1: 0.12; 2: 0.47; 3: 0.28; 4: 0.2; 5: 0.013; 6: 0.14; 7: 0.1; 8: 0.005

Your task in this section: give Relative Potentiation for GABAA1 for each listed record.
1. CCNC(=O)c1nnc2c(-c3cnccc3OC)cccc2c1N
2. CCCNC(=O)c1nnc2c(-c3cc(C)ccc3F)cccc2c1N
3. CCCNC(=O)c1nnc2c(-c3cc(C)ccc3OC)c(Cl)ccc2c1N
4. CCCNC(=O)c1nnc2c(-c3ccccn3)cccc2c1N
5. CCCCNC(=O)c1nnc2c(-c3cc(C)ccc3OC)cccc2c1N
6. CCCNC(=O)c1nnc2c(-c3cncc(C(=O)N4CCC4)c3)cccc2c1N

[A]
["−0.02", 0.095, 0.47, 0.027, 0.32, "−0.11"]

Your task in this section: give Relative Potentiation for GABAA1 for each listed record.
1. CCCNC(=O)c1nnc2c(-c3cnc(OC)nc3)cccc2c1N
2. CCCNC(=O)c1nnc2c(-c3cccnc3)cccc2c1N

[A]
−0.066
−0.11

* * *

tested-target: human α2β3γ2 GABAA receptor (Homo sapiens, UniProt P18507+P47869)
Construct: expressed in transfected cells; host or cells: Xenopus laevis oocytes injected with capped cRNA (α:β:γ 1:1:1)
Sequence (P47869 29-451): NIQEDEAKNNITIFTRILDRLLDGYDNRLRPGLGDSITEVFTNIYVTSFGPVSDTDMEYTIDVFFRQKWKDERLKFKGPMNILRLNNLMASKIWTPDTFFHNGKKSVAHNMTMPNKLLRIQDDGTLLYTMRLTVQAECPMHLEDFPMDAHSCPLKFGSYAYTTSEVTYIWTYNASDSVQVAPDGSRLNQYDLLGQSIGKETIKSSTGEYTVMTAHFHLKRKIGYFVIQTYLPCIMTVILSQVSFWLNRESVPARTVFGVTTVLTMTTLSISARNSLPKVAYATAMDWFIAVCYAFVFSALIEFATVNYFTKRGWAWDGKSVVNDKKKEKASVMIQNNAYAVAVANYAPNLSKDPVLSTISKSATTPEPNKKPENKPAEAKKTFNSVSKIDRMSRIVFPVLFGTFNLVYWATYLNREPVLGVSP
Sequence (P18507 40-475): as the sequence (P18507 40-475) above
Sequence (P28472 26-473 partner): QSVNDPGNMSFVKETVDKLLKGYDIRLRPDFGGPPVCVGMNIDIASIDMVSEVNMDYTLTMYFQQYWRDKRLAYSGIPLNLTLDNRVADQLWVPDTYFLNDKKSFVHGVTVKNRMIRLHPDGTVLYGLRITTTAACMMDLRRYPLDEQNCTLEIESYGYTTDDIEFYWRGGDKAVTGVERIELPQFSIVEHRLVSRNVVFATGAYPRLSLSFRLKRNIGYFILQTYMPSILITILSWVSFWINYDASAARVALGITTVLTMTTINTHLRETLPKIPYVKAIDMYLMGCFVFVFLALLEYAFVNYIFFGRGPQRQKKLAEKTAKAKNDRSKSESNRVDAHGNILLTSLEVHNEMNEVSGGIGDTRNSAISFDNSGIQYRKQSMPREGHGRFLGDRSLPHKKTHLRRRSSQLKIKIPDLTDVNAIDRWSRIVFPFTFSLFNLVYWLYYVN
assay-remarks: Two-electrode voltage-clamp in Xenopus oocytes, potentiation of GABA EC10 current, GABAA2
Assay type: cell-based
assay-context: percentage potentiation of GABA EC10 current divided by that of diazepam control
Each record's class is read off its Relative Potentiation for GABAA2 using these ranges: low-valued: < 0.1; mid-valued: ≥ 0.1 and < 0.2; high-valued: ≥ 0.2

> print(dat)
                                   compound  assigned.category
1  CCCNC(=O)c1nnc2c(-c3ccc(F)cc3OC)c(F)ccc2c1N         mid-valued
2  CCCNC(=O)c1nnc2c(-c3cc(F)cc(F)c3OC)c(F)ccc2c1N         mid-valued
3  CCCNC(=O)c1nnc2c(-c3cc(Cl)ccc3OC)cccc2c1N        high-valued
4   CCCNC(=O)c1nnc2c(-c3cc(F)ccc3C)cccc2c1N        high-valued
5       CCCNC(=O)c1nnc2c(-c3cccnc3)cccc2c1N         low-valued
6        CCCNC(=O)c1nnc2c(-c3ccsc3)cccc2c1N         low-valued
7  CCCNC(=O)c1nnc2c(-c3c(Cl)cccc3OC)cccc2c1N [drawing 410]         mid-valued
8   CCCNC(=O)c1nnc2c(-c3cnc(OC)nc3)cccc2c1N         mid-valued

[Q] Band of CCCNC(=O)c1nnc2c(-c3ccc(C)c(C)c3)cccc2c1N ?
[A] high-valued

[Q] CCCNC(=O)c1nnc2c(-c3cc(C(F)(F)F)cc(C(F)(F)F)c3)cccc2c1N ?
[A] mid-valued

[Q] CCCNC(=O)c1nnc2c(-c3cccc(C)c3C)c(F)ccc2c1N ?
[A] mid-valued

* * *

tested-target: human α1β2γ2 GABAA receptor (Homo sapiens, UniProt P14867+P18507)
Construct: expressed in transfected cells; host or cells: Xenopus laevis oocytes injected with capped cRNA
assay-remarks: Two-electrode voltage-clamp in Xenopus oocytes, potentiation of GABA EC10 current, GABAA1
Format: cell-based
assay-context: percentage potentiation of GABA EC10 current divided by that of diazepam control
Protocol: GABAA receptors were heterologously expressed in Xenopus oocytes by injecting cRNA corresponding to human α1, α2, α3, α5, β2, β3 and γ2 subunits of the GABAA receptor genes. […] Modulatory effect of test compound was determined and compared across subtypes. […] All measurements were done in a medium containing ND-96 (96 NaCl, 2 KCl, 1.8 CaCl2.2H2O, 1 MgCl2.6H2O, 5 HEPES, in mM, pH 7.5). […] The concentration of GABA corresponded to the EC10 value calculated for each oocyte. […]
Assign Relative Potentiation for GABAA1 to each entry below.

> print(dat)
                               query.smiles                 measured.property  result
1  CCCNC(=O)c1nnc2c(-c3cccc(C#N)c3)cccc2c1N  Relative Potentiation for GABAA1   0.088
2  CCCNC(=O)c1nnc2c(-c3ccc(F)cc3OC)cccc2c1N  Relative Potentiation for GABAA1    0.12
3  COc1ncccc1-c1cccc2c(N)c(C(=O)NC3CC3)nnc12  Relative Potentiation for GABAA1  −0.054
4  CCNC(=O)c1nnc2c(-c3cnc(OC)c(F)c3)cccc2c1N  Relative Potentiation for GABAA1  −0.010

Your task in this section: give Relative Potentiation for GABAA1 for each listed record.
1. CCCNC(=O)c1nnc2c(-c3ccc(OC)c(OC)c3OC)c(F)ccc2c1N
2. CCCNC(=O)c1nnc2c(-c3cnccc3C)cccc2c1N
3. CCCNC(=O)c1nnc2c(-c3ccc(OC)cc3C(F)(F)F)cccc2c1N
4. CCCNC(=O)c1nnc2c(-c3ccc(Cl)cc3)c(F)ccc2c1N
5. CCCNC(=O)c1nnc2c(-c3ccc(OC)cc3OC)cccc2c1N

[A]
1: 0.51; 2: 0.083; 3: 0.12; 4: 0.02; 5: 0.18

Your task in this section: give Relative Potentiation for GABAA1 for each listed record.
1. CCCNC(=O)c1nnc2c(-c3cc(F)ccc3C)c(F)ccc2c1N
2. CCCNC(=O)c1nnc2c(-c3cccc(C(=O)O)c3)cccc2c1N
3. CCCNC(=O)c1nnc2c(-c3ccccc3)c(Cl)ccc2c1N
4. CCCNC(=O)c1nnc2c(-c3cc(Cl)cc(Cl)c3)c(F)ccc2c1N
5. CCCNC(=O)c1nnc2c(-c3ccc(C)c(C)c3)cccc2c1N
6. CCCNC(=O)c1nnc2c(-c3cncc(OC)c3)cccc2c1N
7. CCCNC(=O)c1nnc2c(-c3ccc(OC)cc3F)c(F)ccc2c1N
8. CCCNC(=O)c1nnc2c(-c3ccc(OC)c(OC)c3OC)cccc2c1N

[A]
0.032
−0.038
0.25
0.36
0.23
0.07
0.053
0.47
